These data points were gathered from BindingDB's records for doi:10.7270/Q2319T8T.

Molecular target: Steroidogenic factor 1 (Homo sapiens)
Assay: blockers of SF-1 LBD reporter transcription – cell-based, CHO-K1, Gal4-SF-1 LBD, luciferase luminescence, dose response (AID 600)
Listed compounds paired with reported pIC50
Note on pIC50: it is the negative log10 of concentration, concentration in mol/L.

Please give the measured pIC50 for this compound: c1ccc(-n2ncc3c(N4CCCCC4)ncnc32)cc1
5.23

====

Target: Steroidogenic factor 1 (Homo sapiens, UniProt Q13285)
Sequence (Q13285 whole entry, the tested form may be a part): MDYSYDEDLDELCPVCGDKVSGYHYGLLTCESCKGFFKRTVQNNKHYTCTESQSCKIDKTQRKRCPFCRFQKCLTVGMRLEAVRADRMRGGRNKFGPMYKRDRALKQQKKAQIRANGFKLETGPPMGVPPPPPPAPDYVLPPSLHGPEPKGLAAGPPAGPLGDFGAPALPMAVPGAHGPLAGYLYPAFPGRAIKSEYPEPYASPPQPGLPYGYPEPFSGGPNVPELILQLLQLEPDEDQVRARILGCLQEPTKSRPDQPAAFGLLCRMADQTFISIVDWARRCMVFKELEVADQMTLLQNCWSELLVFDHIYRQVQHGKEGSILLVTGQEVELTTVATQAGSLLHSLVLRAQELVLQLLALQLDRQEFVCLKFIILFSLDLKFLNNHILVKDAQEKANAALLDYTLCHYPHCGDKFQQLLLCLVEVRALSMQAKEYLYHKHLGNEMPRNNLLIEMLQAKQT
Assay: blockers of SF-1 LBD reporter transcription – cell-based, CHO-K1, Gal4-SF-1 LBD, luciferase luminescence, dose response (AID 600)
Reported pIC50 values for the following compounds.
Bear in mind: pIC50 is minus log10 of a mol/L concentration; give just that figure.

Hello, I am looking for reported pIC50 with Steroidogenic factor 1 (Homo sapiens, UniProt Q13285) for O=C(CSc1nnnn1C1CC2CCC1C2)Nc1ccnc2ccccc12 (stereo unspecified) . Could you help?
6.01

API: value(readout=pIC50, system=Steroidogenic factor 1 (Homo sapiens, UniProt Q13285)) for record COc1ccc(-c2cc3nc4n(c(=O)c3s2)CCC4)cc1
5.36

Item CN1C2C=C3C(C#N)=C(N)C(C#N)(C#N)[C@@H](c4ccc(Cl)cc4)[C@@H]3C1CC2 (stereo partly specified) [SMR000038778] with Steroidogenic factor 1 (Homo sapiens, UniProt Q13285) - pIC50?
5.47

====

Target: Steroidogenic factor 1 (Homo sapiens, UniProt Q13285)
Assay: blockers of SF-1 LBD reporter transcription – cell-based, CHO-K1, Gal4-SF-1 LBD, luciferase luminescence, dose response (AID 600)
Measurement Label: IC50 (µM)
Please respond with the number in µM and leave the unit unwritten.

Below, each entry is followed by its recorded IC50 result.
COC(=O)c1sc(NC(=O)c2ccc(OC)cc2OC)nc1C
2.86
CCCc1ccc(-c2ccc(F)c(N)c2)nc1
7.35
CCNC(=O)CCc1nc(-c2ccc(C(C)(C)C)cc2)no1
0.0401
COc1cc(C2c3ccc(N)cc3OC(=N)C2C#N)cc(OC)c1OC (stereo unspecified)
7.92
CCc1ccc2oc(-c3cc(N=Cc4cccc(OC)c4O)ccc3O)nc2c1
5.66

# get_value(readout='IC50', item= CN1CCN(C(=O)COc2ccc(-c3nc4ccccc4s3)cc2)CC1 )
7.32

====

Listed here are molecules together with their documented IC50.
Biological target: Steroidogenic factor 1 (Homo sapiens)
Test: blockers of SF-1 LBD reporter transcription – cell-based, CHO-K1, Gal4-SF-1 LBD, luciferase luminescence, dose response (AID 600)
API: value field is a number in µM; no unit string.

CC(NC(=O)Nc1nnc(C(F)(F)F)s1)(C(F)(F)F)C(F)(F)F
6.25

Please provide the recorded IC50 for Cc1cc(NC(=O)CCCS(=O)(=O)c2nc(-c3cccs3)cc(C(F)(F)F)n2)no1 , tested on Steroidogenic factor 1 (Homo sapiens).
8.2

Form field: IC50 recorded for O=C(CSc1nnc(COc2cccc3cccnc23)o1)N1CCc2ccccc21 with Steroidogenic factor 1 (Homo sapiens) (enter value)
4.4

Requested read-out IC50, target or system Steroidogenic factor 1 (Homo sapiens), entry c1ccc(-c2noc(-c3ccc4c(c3)OCO4)n2)nc1
1.36

Provide value of IC50 for this record tested with Steroidogenic factor 1 (Homo sapiens): c1c2c(cc3sc(N4CCCCC4)nc13)OCCO2
3.91

API: value(readout= IC50, system= Steroidogenic factor 1 (Homo sapiens), query= CN(C)c1ccc(NC(=S)c2ccccn2)cc1 )
2.41

Please provide the recorded IC50 for O=C1c2ccccc2C(=O)C1c1nccc2ccccc12 , tested on Steroidogenic factor 1 (Homo sapiens).
4.03

Quick check: IC50 on Steroidogenic factor 1 (Homo sapiens), item c1ccc(-c2cn3c4c(sc3n2)CCCC4)cc1 ?
4.54

Write down the reported IC50 of CN(C)C(=O)CCc1nc(-c2ccc(C(C)(C)C)cc2)no1 , test system: Steroidogenic factor 1 (Homo sapiens).
0.993

Item C[C@@]1(CO)[C@H](O)CC[C@@]2(C)[C@H]1CC[C@H]1C[C@@H]3C[C@@]12CC[C@]3(O)CO with Steroidogenic factor 1 (Homo sapiens) - IC50?
0.55

====

// pIC50 lookup, one value per entry
Molecular target: UniProtKB Q13285
Experiment: blockers of SF-1 LBD reporter transcription – cell-based, CHO-K1, Gal4-SF-1 LBD, luciferase luminescence, dose response (AID 600)
The read-out pIC50 is expressed as -log10 of concentration in moles per litre.

The cases that follow already have their pIC50 on record.
Fc1ccc2[nH]c3c(N4CCN(Cc5ccc6c(c5)OCO6)CC4)ncnc3c2c1
5.11
Oc1c(CN2CCOCC2)cc(COCc2ccccc2)c2cccnc12
5.22

Which pIC50 value is on record for CCOc1ccc(-c2nc(CSCC(=O)NCc3ccco3)c(C)o2)cc1 ?
6.72

Dear colleague, I am looking for the recorded pIC50 of the following compound: COc1cc2nc(CN3CC=C(c4ccccc4)CC3)nc(O)c2cc1OC [MLS000053305]
5.89

Which value of pIC50 has been reported for CCN(CC)c1ccc(-c2nn3c(-c4ccccc4OC)nnc3s2)cc1 in the records?
5.30

Please give the measured pIC50 for this compound: O=C(c1ccccc1)C(CCC(CN1CCOCC1)C(=O)c1ccccc1)CN1CCOCC1 (stereo not given)
4.97

// query pIC50 value for entry CCn1nc(-c2cccs2)nc2c(=O)n(C)c(=O)nc1-2
5.58

Given the entry CCOC(=O)C(C)Oc1cccc2c(=O)n(CC(=O)NCc3ccc4c(c3)OCO4)ccc12 (stereo not given) , report its measured pIC50.
6.50

====

Target: Steroidogenic factor 1 (Homo sapiens)
Assay: blockers of SF-1 LBD reporter transcription – cell-based, CHO-K1, Gal4-SF-1 LBD, luciferase luminescence, dose response (AID 600)
Measurement Label: pIC50
FYI, pIC50 means -log10 of a concentration in mol per litre.

Below, each entry is followed by its recorded pIC50 result.
Cc1cc(C)n(-c2nc(NC(C)(C)C)nc(NC(C)(C)C)n2)n1
5.09
COc1cccc2c1C(=O)c1c(O)c3c(c(O)c1C2=O)C[C@@](O)(C(C)=O)C[C@@H]3O[C@H]1C[C@H](N)[C@H](O)[C@H](C)O1
6.27

Now, please, on to the next molecule.
Query: pIC50; subject: Nc1nonc1C(=O)NCCNCc1cc(Br)ccc1OCc1ccc(F)cc1
5.35

====

Molecular target: Steroidogenic factor 1 (Homo sapiens, UniProt Q13285)
Assay: blockers of SF-1 LBD reporter transcription – cell-based, CHO-K1, Gal4-SF-1 LBD, luciferase luminescence, dose response (AID 600)
Known pIC50 of a selection of compounds
Units for pIC50: none; it is -log10 of a concentration expressed in mol/L.

c1ccc(N2CCN(c3nc(-c4ccccn4)nc4ccccc34)CC2)cc1
5.25
O=c1cc(N2CCN(c3cccc(Cl)c3)CC2)[nH]c(=O)n1C1CCCCC1 [MLS000094380]
6.50
CS(=O)(=O)c1nc(-c2cccs2)cc(C(F)(F)F)n1 [MLS000044645]
5.26
CCOc1ccc(-c2nc(CSCC(=O)NCCN3CCOCC3)c(C)o2)cc1
5.36
Clc1ccc(-n2ncc3c(N4CCCC4)ncnc32)cc1
5.50

Then this compound:
Query the reported pIC50 for Steroidogenic factor 1 (Homo sapiens, UniProt Q13285); item: Cc1ccc(-c2nc(-c3ccccn3)no2)cc1
5.90

====

Target: Steroidogenic factor 1 (Homo sapiens, UniProt Q13285)
Test: blockers of SF-1 LBD reporter transcription – cell-based, CHO-K1, Gal4-SF-1 LBD, luciferase luminescence, dose response (AID 600)
Measurement Label: IC50

// worked examples, IC50 included
Cc1cccc(-n2ncc3c(N(C)C4CCCCC4)ncnc32)c1
> 3.67 µM
Cc1ccc(N2C(=O)c3ccccc3C2O)nc1 (stereo unspecified)
8.67 µM
CC(C)(C)c1ccc(-c2noc(CCC(N)=O)n2)cc1
0.069 µM

What value of measured IC50 is listed for CCCCCOC(=O)c1[nH]c2c(c1C)C(=O)CC(c1ccco1)C2 (stereo unspecified) ?
> 1.22 µM

Which measured IC50 value corresponds to C[C@H]1CCCC=CC2C[C@H](O)CC2[C@H](O)C=CC(=O)O1 (stereo partly specified) ?
5.61 µM

For the compound shown here, O=S1(=O)C=C(Sc2nc3cc(Cl)ccc3o2)c2ccccc21 , give the reported IC50.
5.11 µM

Would you mind telling me what IC50 value was observed for c1ccc(-c2nc(NCc3ccco3)c3ccccc3n2)nc1 ?
6.79 µM

Please report the recorded IC50 for CCOc1ccc(-c2cc(CCCC(=O)NCCCOC)no2)cc1 .
4.46 µM

Which measured IC50 value corresponds to O=S(=O)(NCc1ccncc1)c1ccc(Br)s1 ?
0.108 µM

Can you share its IC50? I mean this compound: Cc1ccc(-c2csc3ncnc(Sc4nnc(CN5CCCCCC5=O)o4)c23)cc1
5.76 µM

Which IC50 reading was recorded for the compound c1ccc(N=C2N=C(Nc3ccccn3)c3ccccc32)nc1 ?
2.24 µM
